Just for reference, PubChem BioAssay is where these values come from.

# RUN_DESCRIPTION: change in splice reporter luminescence, either direction, cell-based, HEK293, spliceosome inhibition project, primary screen (AID 1101);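 note: HEK293 cells carrying a splicing-competent luciferase reporter gene; test concentration not given here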
# CONDITIONS: HEK293 splicing luciferase reporter, 24 h, higher = more signal, called active from +8 up or from −8 down
ENDPOINT_NAME: z-score
Give the value as a plain number.

Examples with their reported z-score follow.
# MOLECULE, z-score
records = [
    ("CC(=O)n1cc(C(O)C2C=CC3C(=O)N(c4ccccc4)C(=O)C3N2Nc2ccc(C#N)cc2)c2ccccc21 (stereo not given)", 0.888),
    ("COc1ccc([Si](C)(C)[C@H]2[C@H](CCO)O[C@@]3(C(=O)N(Cc4cccc(N5C(=O)c6cccc7cccc5c67)c4)c4ccccc43)[C@@H]2C)cc1", -1.27),
    ("COc1ccc(CCNC(=O)[C@@]2(C)c3ccccc3C(=O)N(Cc3ccccc3)[C@H]2c2ccc(CO)cc2)cc1", -0.278),
]

The measured z-score associated with CCCCN1CC=CC23O[C@@H]4/C=C\CCCOC(=O)C4[C@H]2C(=O)N(C(C)CO)[C@@H]3C1=O (stereo not given in full) reads -0.577

The measured z-score associated with Cc1ccc(S[C@]2(C(=O)NCCCN(C)C)CC(=O)N(C(C)C)[C@@H]2c2ccc(CO)cc2I)cc1 reads -1.44

The measured z-score associated with Cc1ccc(N2C(=O)c3ccccc3[C@](C)(C(=O)NCCN3CCOCC3)[C@@H]2c2ccc(CO)cc2)nc1 reads 0.219

The measured z-score associated with CCCC[C@@H]1C[C@H]1[C@@H](NC(=O)c1ccccc1)c1ccccc1 reads 0.308

The measured z-score associated with C=C(C(=O)CC[C@@H](OC(=O)c1cccnc1)c1ccc(CO)o1)C(C)C reads 1.38

The measured z-score associated with COCCOC(=O)N1C(=O)[C@@]2(c3cc(C#CC4(O)CCCCCC4)ccc31)[C@H](c1ccc(O)cc1)N1[C@H](c3ccccc3)[C@H](c3ccccc3)OC(=O)[C@H]1[C@@H]2C(=O)N1CCc2cc(OC)c(OC)cc2C1 reads -0.597

The measured z-score associated with C=C(CCCC)C(=O)CC[C@H](OC(C)=O)c1ccc(CO)o1 reads -1.14

The measured z-score associated with C=C(COC)C(=O)CC[C@H](OC(=O)c1cccnc1)c1ccccc1OCCO reads 0.193

The measured z-score associated with COCCOC(=O)N1C(=O)[C@@]2(c3cc(C#CC4=CCCCC4)ccc31)[C@H](C(=O)N1CCN(c3ncccn3)CC1)[C@H]1C(=O)O[C@H](c3ccccc3)[C@H](c3ccccc3)N1[C@@H]2c1ccc(OCCO)cc1 reads -0.902

The measured z-score associated with O=C1O[C@H](c2ccccc2)[C@H](c2ccccc2)N2[C@H]1[C@@H](C(=O)Nc1nc3ccccc3s1)[C@]1(C(=O)Nc3ccc(C#CC4=CCCCC4)cc31)[C@H]2c1ccc(OCCO)cc1 reads -0.718

The measured z-score associated with C=C(COC)C(=O)CC[C@@H](OC(=O)c1ccccc1-c1ccccc1C(=O)O)c1ccc(CO)o1 reads -1.24

The measured z-score associated with CC(C)N1C(=O)c2ccccc2[C@](C)(C(=O)NCCCN(C)C)[C@@H]1c1ccc(CO)cc1 reads -0.297
